- assay_procedure: Deoxyribose-damaging property as a measure of hydroxyl-radical formation (uM test compound)
Overview of recorded Deoxyribose degradation (uM of MDA mM-1) for various compounds

Examples with their reported Deoxyribose degradation (uM of MDA mM-1) follow.
O=C1c2c(O)cccc2C(=CCCCc2ccccc2)c2cccc(O)c21    < 0.15
CCCC(=O)C1c2cccc(O)c2C(=O)c2c(O)cccc21    0.24
O=C1c2c(O)cccc2C(C(=O)Cc2ccc(OCc3ccccc3)c(OCc3ccccc3)c2)c2cccc(O)c21    < 0.2
O=C1c2c(O)cccc2C(C(=O)Cc2ccc(O)cc2)c2cccc(O)c21    0.36
O=C1c2c(O)cccc2C(=CCCCCc2ccccc2)c2cccc(O)c21    < 0.15
COc1ccc(CCC(=O)C2c3cccc(O)c3C(=O)c3c(O)cccc32)cc1OC    < 0.2

For the compound COc1ccc(C=C2c3cccc(O)c3C(=O)c3c(O)cccc32)cc1 , give its reported Deoxyribose degradation (uM of MDA mM-1).
< 0.15

For the compound O=C1c2c(O)cccc2C(C(=O)Cc2ccc(OCc3ccccc3)cc2)c2cccc(O)c21 , give its reported Deoxyribose degradation (uM of MDA mM-1).
< 0.2

For the compound O=C1c2c(O)cccc2C(=CCc2ccccc2)c2cccc(O)c21 , give its reported Deoxyribose degradation (uM of MDA mM-1).
< 0.15
